- PROCEDURE_DETAILS: amyloid nucleation score (Sup35N fusion, yeast selection) (log enrichment); library NNK3; higher = more nucleation; inactive = no reads after selection;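 note: zero at mode of non-aggregating sequences after 7 days selection at 30°C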
ENDPOINT_LABEL: amyloid nucleation score

Field: example entries. Status: answers known.
GET /value?item= IDQRWYCALQCHCREEINCR &field=amyloid nucleation score returns inactive

GET /value?item= GGLCRGYQDMIMLWNMLQKQ &field=amyloid nucleation score returns inactive

GET /value?item= TDTRNINV &field=amyloid nucleation score returns inactive

GET /value?item= LGGKDSASILIVPWTILSGL &field=amyloid nucleation score returns inactive

Others:
GET /value?item= ASLTYY &field=amyloid nucleation score returns inactive

GET /value?item= CWYQPPNDNVYFMMILYI &field=amyloid nucleation score returns 1.97

GET /value?item= VSYKKDCMQTSLRLVITF &field=amyloid nucleation score returns inactive

GET /value?item= GVHHDCDYCRYLDDDVKLWW &field=amyloid nucleation score returns inactive

GET /value?item= YDRNLNMCLQEMHRNIR &field=amyloid nucleation score returns inactive

GET /value?item= SPWLSAHRSNTGVRTLSLEV &field=amyloid nucleation score returns inactive

GET /value?item= TYFTFSREVKMMVHTNCCLL &field=amyloid nucleation score returns 0.594

====

- PROCEDURE_DETAILS: amyloid nucleation score (Sup35N fusion, yeast selection) (log enrichment); library NNK3; higher = more nucleation; inactive = no reads after selection
ENDPOINT_LABEL: amyloid nucleation score

GET /value?item= FNGSTCCVSSV &field=amyloid nucleation score returns inactive

GET /value?item= LTSGVNRISQQPWLSLVDIG &field=amyloid nucleation score returns inactive

GET /value?item= SVNVHCIREPWVADWTCCRL &field=amyloid nucleation score returns 1.18

GET /value?item= GYQLLNHLHAYTAGTNNLRL &field=amyloid nucleation score returns inactive

====

- PROCEDURE_DETAILS: amyloid nucleation score (Sup35N fusion, yeast selection) (log enrichment); library NNK1; higher = more nucleation; inactive = no reads after selection
I'd appreciate it if you could supply amyloid nucleation score values for the items below.
In your answer, state the number alone without any accompanying words.

GET /value?item= VSFLASMLRIGMCLPKQVMW &field=amyloid nucleation score returns 0.183

GET /value?item= SLLCWKLAVHQLGMIGNIYS &field=amyloid nucleation score returns -0.452

GET /value?item= PRSDNSFSVQVEFVDICEVK &field=amyloid nucleation score returns -0.437

GET /value?item= LFTTFNNLISVFTVVLNSNQ &field=amyloid nucleation score returns 6.79

GET /value?item= RCVFNRIKDFSVRDRWSFSG &field=amyloid nucleation score returns 1.03

GET /value?item= FRSVSGNMYTLLFRIE &field=amyloid nucleation score returns 1.62

GET /value?item= FRLDNLRCTWVFRYPIGESS &field=amyloid nucleation score returns 1.17

GET /value?item= FLFFRS &field=amyloid nucleation score returns 4.62

GET /value?item= NYSYNYLVVKRENTGYSGQV &field=amyloid nucleation score returns 0.917

GET /value?item= LLVVRLNVCRRHMDFKYG &field=amyloid nucleation score returns -0.419

GET /value?item= LPFSLFSLD &field=amyloid nucleation score returns 0.308

GET /value?item= AFRCCMFAFVFCSSGDSRAE &field=amyloid nucleation score returns 7.39

GET /value?item= FLNNTGAQSKLFLDVSVRQG &field=amyloid nucleation score returns -0.065

GET /value?item= FLCHWLYFRNSYGGYVSRW &field=amyloid nucleation score returns 1.92

GET /value?item= CFSQVCDKFMMEMMFSCFKV &field=amyloid nucleation score returns 0.451

GET /value?item= CFLMNLVAYFVFLRTLS &field=amyloid nucleation score returns 1.49

GET /value?item= PSIGMVF &field=amyloid nucleation score returns 1.77

GET /value?item= SATIKYHYFLTFFNVDRFCR &field=amyloid nucleation score returns 2.07

GET /value?item= LEINIVACVDTA &field=amyloid nucleation score returns -0.559

GET /value?item= NFFIWLMVFIGDFFDLVTSA &field=amyloid nucleation score returns -0.94

GET /value?item= IWLSLYIAFYGCLHGWFPSQ &field=amyloid nucleation score returns 0.645

GET /value?item= EHFMSTCKPPDGE &field=amyloid nucleation score returns 0.927

GET /value?item= MFAVMNGAVLSTPLDNVCRV &field=amyloid nucleation score returns -0.581

GET /value?item= RYEMSVHGV &field=amyloid nucleation score returns 0.391

GET /value?item= EFGRDNHVLVLWMGRAPSDM &field=amyloid nucleation score returns -0.436

GET /value?item= RTINMQLVTLYLTSRVVDNF &field=amyloid nucleation score returns 1.1

GET /value?item= SGGDFQCTRHMSVDLGLPVS &field=amyloid nucleation score returns 0.428

GET /value?item= DYPPIRALVSFDCCAVSTCL &field=amyloid nucleation score returns 0.922

GET /value?item= WYLWHMLICLVTFRMNSFFR &field=amyloid nucleation score returns 0.707

====

- PROCEDURE_DETAILS: amyloid nucleation score (Sup35N fusion, yeast selection) (log enrichment); library NNK1; higher = more nucleation; inactive = no reads after selection
ENDPOINT_LABEL: amyloid nucleation score
In your answer, state the number alone without any accompanying words.

GET /value?item= WNDWSYHCNF &field=amyloid nucleation score returns -0.11

GET /value?item= VNEREPYNCCFMRFDTCTSP &field=amyloid nucleation score returns 1.31

GET /value?item= NVSDWSHVFMSMFLIMGGCN &field=amyloid nucleation score returns 0.509

====

I'd appreciate it if you could supply amyloid nucleation score values for the items below.
- PROCEDURE_DETAILS: amyloid nucleation score (Sup35N fusion, yeast selection) (log enrichment); library NNK1; higher = more nucleation; inactive = no reads after selection
In your answer, state the number alone without any accompanying words.

GET /value?item= AKSLVDRKRVDNPWRFSVGW &field=amyloid nucleation score returns 0.297

GET /value?item= CYFVCNDHCYFYQSLLQTHE &field=amyloid nucleation score returns 5.32

GET /value?item= LTSRVQCKNNCFSD &field=amyloid nucleation score returns 2.38

GET /value?item= ISLLGIWV &field=amyloid nucleation score returns 0.939

GET /value?item= VRNKMGSRSYSTS &field=amyloid nucleation score returns -1.65

GET /value?item= SFHWQKGSSSYTVSPHSAKL &field=amyloid nucleation score returns 0.239

GET /value?item= IRWRSSFVQSMMVTHQHQSF &field=amyloid nucleation score returns 1.85

GET /value?item= AVSMWLPNDLAMIRSYIGYY &field=amyloid nucleation score returns -0.475

GET /value?item= WLISFGDFDGSMFKMMSNTK &field=amyloid nucleation score returns 2.67

GET /value?item= GRFKWCGCNNTLWVGISRN &field=amyloid nucleation score returns 1.9

GET /value?item= LCQSYGCFVPYYLYDFHRVV &field=amyloid nucleation score returns 6.52

====

- PROCEDURE_DETAILS: amyloid nucleation score (Sup35N fusion, yeast selection) (log enrichment); library NNK3; higher = more nucleation; inactive = no reads after selection
ENDPOINT_LABEL: amyloid nucleation score

Field: example entries. Status: answers known.
GET /value?item= YIKRTIFTYYYRERMIADSY &field=amyloid nucleation score returns inactive

GET /value?item= LFDFYRNSVTD &field=amyloid nucleation score returns inactive

GET /value?item= GKDSCKTTLVSRRLLRLKAP &field=amyloid nucleation score returns inactive

GET /value?item= IALGRFTCNGIVVVSF &field=amyloid nucleation score returns inactive

GET /value?item= VVWLSNSEWLRYLKDG &field=amyloid nucleation score returns inactive

Others:
GET /value?item= YYSMTKNARCGHSFEAKSLF &field=amyloid nucleation score returns inactive

GET /value?item= ISMNLVLFMWFRRIGFLICL &field=amyloid nucleation score returns inactive

GET /value?item= HILSCSQVFG &field=amyloid nucleation score returns 0.025

GET /value?item= TIRYRIQVNSCHESVIAGYT &field=amyloid nucleation score returns inactive

GET /value?item= RDSVNFTSNCCSVGFNTFNS &field=amyloid nucleation score returns 2.67

====

- PROCEDURE_DETAILS: amyloid nucleation score (Sup35N fusion, yeast selection) (log enrichment); library NNK1; higher = more nucleation; inactive = no reads after selection
I'd appreciate it if you could supply amyloid nucleation score values for the items below.
In your answer, state the number alone without any accompanying words.

GET /value?item= GSDNLDFRCNWVYN &field=amyloid nucleation score returns 0.616

GET /value?item= VSLRTISWNMLLNDCWHVKM &field=amyloid nucleation score returns 0.176

GET /value?item= SYCLLIDLLLHSHVGLYSPM &field=amyloid nucleation score returns 0.519

====

- PROCEDURE_DETAILS: amyloid nucleation score (Sup35N fusion, yeast selection) (log enrichment); library NNK2; higher = more nucleation; inactive = no reads after selection
Classify by measured amyloid nucleation score: MET if it is equal to or exceeds 0.4, NOT MET if it is smaller.

Prompt line: Is amyloid nucleation score for KLLPEWSWKG at or above 0.4?
Response line: MET

Prompt line: Is amyloid nucleation score for CSINLRAYPVLSRGATVACK at or above 0.4?
Response line: MET

Prompt line: Is amyloid nucleation score for LFMPGSFFDIFE at or above 0.4?
Response line: NOT MET

Prompt line: Is amyloid nucleation score for ISTYSMYACFKMSL at or above 0.4?
Response line: MET

Prompt line: Is amyloid nucleation score for FKNRGLLICFEEEHLCAKRR at or above 0.4?
Response line: NOT MET

Prompt line: Is amyloid nucleation score for LILLFLTAQRLCLVSDEESE at or above 0.4?
Response line: NOT MET

Prompt line: Is amyloid nucleation score for SNFETDTL at or above 0.4?
Response line: MET

Prompt line: Is amyloid nucleation score for GWMHFVALKGFSNHGRAGSG at or above 0.4?
Response line: MET

Prompt line: Is amyloid nucleation score for QRDCSYEYLTTKLTAELRGS at or above 0.4?
Response line: NOT MET

Prompt line: Is amyloid nucleation score for YSSFIDNHFAVRR at or above 0.4?
Response line: NOT MET

Prompt line: Is amyloid nucleation score for HDKAHLRTCVVFRLESSGG at or above 0.4?
Response line: MET

Prompt line: Is amyloid nucleation score for ILYGGSPSLYVYAYTKN at or above 0.4?
Response line: MET

Prompt line: Is amyloid nucleation score for HTFITVPASGRAATLCTSED at or above 0.4?
Response line: MET

Prompt line: Is amyloid nucleation score for IKCKKKYRSYWNRG at or above 0.4?
Response line: NOT MET

Prompt line: Is amyloid nucleation score for RVISGSMVETIDEDIVEGVN at or above 0.4?
Response line: NOT MET

Prompt line: Is amyloid nucleation score for CMSNAKCKGVDFAAGKLLSC at or above 0.4?
Response line: NOT MET

Prompt line: Is amyloid nucleation score for GAIRFK at or above 0.4?
Response line: NOT MET

Prompt line: Is amyloid nucleation score for RSGAVQWRQRMGCMPSVCDR at or above 0.4?
Response line: MET

Prompt line: Is amyloid nucleation score for WSITGG at or above 0.4?
Response line: MET

Prompt line: Is amyloid nucleation score for SFMGLAMHRSLSSCSVRSWY at or above 0.4?
Response line: NOT MET

Prompt line: Is amyloid nucleation score for ARFWWALGNLCERIAGNDWV at or above 0.4?
Response line: NOT MET

Prompt line: Is amyloid nucleation score for NRVGSSGSRYALHRVSSS at or above 0.4?
Response line: MET

Prompt line: Is amyloid nucleation score for WNGYNGRDMCGKLCGVCTLG at or above 0.4?
Response line: NOT MET

Prompt line: Is amyloid nucleation score for PGHLLRILVFSNNYAYQRDI at or above 0.4?
Response line: NOT MET
